- Test system: Staphylococcus aureus
- PROTOCOL NOTES: Antibacterial activity against methicilin-resistant Staphylococcus aureus 21455 assessed as inhibition of bacterial growth
- Format: functional
I'd appreciate it if you could supply MIC values for the items below.
Please state the figure in µg/mL; there is no need to write the unit.

Which MIC is reported for this molecule? CCCC[C@@H]1NC(=O)[C@H](C)NC(=O)[C@H](NC(=O)[C@H](CO)NC(=O)[C@@H](NC(=O)[C@H](NC(=O)[C@@H](CCC(N)=O)NC(=O)[C@H](CO)NC(=O)[C@@H](NC(=O)[C@@H](Cc2ccccc2)NC)[C@@H](C)CC)[C@@H](C)CC)[C@@H](C)CC)[C@H](C)OC(=O)[C@H]([C@@H](C)CC)NC1=O
0.25

Which MIC is reported for this molecule? CCC[C@@H]1NC(=O)[C@H](C)NC(=O)[C@H](NC(=O)[C@H](CO)NC(=O)[C@@H](NC(=O)[C@H](NC(=O)[C@@H](CCC(N)=O)NC(=O)[C@H](CCCNC(=N)N)NC(=O)[C@@H](NC(=O)[C@@H](Cc2ccccc2)NC)[C@@H](C)CC)[C@@H](C)CC)[C@@H](C)CC)[C@H](C)OC(=O)[C@H]([C@@H](C)CC)NC1=O
0.063

Which MIC is reported for this molecule? CCC[C@@H]1NC(=O)[C@H](C)NC(=O)[C@H](NC(=O)[C@H](CO)NC(=O)[C@@H](NC(=O)[C@H](NC(=O)[C@@H](CCC(N)=O)NC(=O)[C@H](CO)NC(=O)[C@@H](NC(=O)[C@@H](Cc2ccccc2)NC)[C@@H](C)CC)[C@@H](C)CC)[C@@H](C)CC)[C@H](C)OC(=O)[C@H]([C@@H](C)CC)NC1=O
0.125

###

- System: Staphylococcus saprophyticus
- PROTOCOL NOTES: Antibacterial activity against Staphylococcus saprophyticus ATCC BAA 750 assessed as inhibition of bacterial growth
- Assay type: functional
I'd appreciate it if you could supply MIC values for the items below.
Please state the figure in µg/mL; there is no need to write the unit.

Param readout= MIC; system= Staphylococcus saprophyticus; entry= CCC[C@@H]1NC(=O)[C@H](CCCNC(=N)N)NC(=O)[C@H](NC(=O)[C@H](CO)NC(=O)[C@@H](NC(=O)[C@H](NC(=O)[C@@H](CCCNC(=N)N)NC(=O)[C@H](CCCNC(=N)N)NC(=O)[C@@H](NC(=O)[C@@H](Cc2ccccc2)NC)[C@@H](C)CC)[C@@H](C)CC)[C@@H](C)CC)[C@H](C)OC(=O)[C@H]([C@@H](C)CC)NC1=O ; returns value.
0.5

Param readout= MIC; system= Staphylococcus saprophyticus; entry= CCC[C@@H]1NC(=O)[C@H](C)NC(=O)[C@H](NC(=O)[C@H](CO)NC(=O)[C@@H](NC(=O)[C@H](NC(=O)[C@@H](CCCNC(=N)N)NC(=O)[C@H](CO)NC(=O)[C@@H](NC(=O)[C@@H](Cc2ccccc2)NC)[C@@H](C)CC)[C@@H](C)CC)[C@@H](C)CC)[C@H](C)OC(=O)[C@H]([C@@H](C)CC)NC1=O ; returns value.
0.063

Param readout= MIC; system= Staphylococcus saprophyticus; entry= CCC[C@@H]1NC(=O)[C@H](C)NC(=O)[C@H](NC(=O)[C@H](CO)NC(=O)[C@@H](NC(=O)[C@H](NC(=O)[C@@H](CCC(N)=O)NC(=O)[C@H](CO)NC(=O)[C@@H](NC(=O)[C@@H](Cc2ccccc2)NC)[C@@H](C)CC)[C@@H](C)CC)[C@@H](C)CC)[C@H](C)OC(=O)[C@H]([C@@H](C)CC)NC1=O ; returns value.
0.063

Param readout= MIC; system= Staphylococcus saprophyticus; entry= CCCCCCCCCC(=O)N[C@@H](Cc1c[nH]c2ccccc12)C(=O)N[C@H](CC(N)=O)C(=O)N[C@@H](CC(=O)O)C(=O)N[C@@H]1C(=O)NCC(=O)N[C@@H](CCCN)C(=O)N[C@@H](CC(=O)O)C(=O)N[C@H](C)C(=O)N[C@@H](CC(=O)O)C(=O)NCC(=O)N[C@H](CO)C(=O)N[C@@H]([C@H](C)CC(=O)O)C(=O)N[C@@H](CC(=O)c2ccccc2N)C(=O)O[C@@H]1C ; returns value.
0.125

Param readout= MIC; system= Staphylococcus saprophyticus; entry= CCC[C@@H]1NC(=O)[C@H](C)NC(=O)[C@H](NC(=O)[C@H](CO)NC(=O)[C@@H](NC(=O)[C@H](NC(=O)[C@@H](CCC(N)=O)NC(=O)[C@H](CCCNC(=N)N)NC(=O)[C@@H](NC(=O)[C@@H](Cc2ccccc2)NC)[C@@H](C)CC)[C@@H](C)CC)[C@@H](C)CC)[C@H](C)OC(=O)[C@H]([C@@H](C)CC)NC1=O ; returns value.
0.063

Param readout= MIC; system= Staphylococcus saprophyticus; entry= CC[C@H](C)[C@H](NC(=O)[C@@H](Cc1ccccc1)NC)C(=O)N[C@@H](CO)C(=O)N[C@H](CCCNC(=N)N)C(=O)N[C@@H](C(=O)N[C@H](C(=O)N[C@@H](CO)C(=O)N[C@H]1C(=O)N[C@@H](C)C(=O)N[C@@H](C2CCCCC2)C(=O)N[C@@H]([C@@H](C)CC)C(=O)O[C@H]1C)[C@@H](C)CC)[C@@H](C)CC ; returns value.
0.063

Param readout= MIC; system= Staphylococcus saprophyticus; entry= CC[C@H](C)[C@H](NC(=O)[C@@H](Cc1ccccc1)NC)C(=O)N[C@@H](CO)C(=O)N[C@H](CCC(N)=O)C(=O)N[C@@H](C(=O)N[C@H](C(=O)N[C@@H](CO)C(=O)N[C@H]1C(=O)N[C@@H](C)C(=O)N[C@@H](C2CCCCC2)C(=O)N[C@@H]([C@@H](C)CC)C(=O)O[C@H]1C)[C@@H](C)CC)[C@@H](C)CC ; returns value.
0.063

Param readout= MIC; system= Staphylococcus saprophyticus; entry= CC[C@H](C)[C@H](NC(=O)[C@@H](Cc1ccccc1)NC)C(=O)N[C@@H](CO)C(=O)N[C@H](CCC(N)=O)C(=O)N[C@@H](C(=O)N[C@H](C(=O)N[C@@H](CO)C(=O)N[C@H]1C(=O)N[C@@H](CCCNC(=N)N)C(=O)N[C@@H](C2CCCCC2)C(=O)N[C@@H]([C@@H](C)CC)C(=O)O[C@H]1C)[C@@H](C)CC)[C@@H](C)CC ; returns value.
0.063

Param readout= MIC; system= Staphylococcus saprophyticus; entry= COc1c(N2C[C@@H]3CCCN[C@@H]3C2)c(F)cc2c(=O)c(C(=O)O)cn(C3CC3)c12 [MOXIFLOXACIN] ; returns value.
0.25

Param readout= MIC; system= Staphylococcus saprophyticus; entry= CCC[C@@H]1NC(=O)[C@H](CCCNC(=N)N)NC(=O)[C@H](NC(=O)[C@H](CO)NC(=O)[C@@H](NC(=O)[C@H](NC(=O)[C@@H](CCC(N)=O)NC(=O)[C@H](CCCNC(=N)N)NC(=O)[C@@H](NC(=O)[C@@H](Cc2ccccc2)NC)[C@@H](C)CC)[C@@H](C)CC)[C@@H](C)CC)[C@H](C)OC(=O)[C@H]([C@@H](C)CC)NC1=O ; returns value.
0.063

###

- Tested on: Enterococcus faecium
- PROTOCOL NOTES: Antibacterial activity against Vancomycin-resistant Enterococcus […] ATCC 700802 assessed as inhibition of bacterial growth
- Assay type: functional
ASSAY METRIC: MIC (µg/mL)
Please state the figure in µg/mL; there is no need to write the unit.

Which MIC is reported for this molecule? CCC[C@@H]1NC(=O)[C@H](CCCNC(=N)N)NC(=O)[C@H](NC(=O)[C@H](CO)NC(=O)[C@@H](NC(=O)[C@H](NC(=O)[C@@H](CCC(N)=O)NC(=O)[C@H](CO)NC(=O)[C@@H](NC(=O)[C@@H](Cc2ccccc2)NC)[C@@H](C)CC)[C@@H](C)CC)[C@@H](C)CC)[C@H](C)OC(=O)[C@H]([C@@H](C)CC)NC1=O
1

Which MIC is reported for this molecule? CCC[C@@H]1NC(=O)[C@H](C)NC(=O)[C@H](NC(=O)[C@H](CO)NC(=O)[C@@H](NC(=O)[C@H](NC(=O)[C@@H](CCC(N)=O)NC(=O)[C@H](CO)NC(=O)[C@@H](NC(=O)[C@@H](Cc2ccccc2)NC)[C@@H](C)CC)[C@@H](C)CC)[C@@H](C)CC)[C@H](C)OC(=O)[C@H]([C@@H](C)CC)NC1=O
1

Which MIC is reported for this molecule? CCC[C@@H]1NC(=O)[C@H](CCCNC(=N)N)NC(=O)[C@H](NC(=O)[C@H](CO)NC(=O)[C@@H](NC(=O)[C@H](NC(=O)[C@@H](CCCNC(=N)N)NC(=O)[C@H](CCCNC(=N)N)NC(=O)[C@@H](NC(=O)[C@@H](Cc2ccccc2)NC)[C@@H](C)CC)[C@@H](C)CC)[C@@H](C)CC)[C@H](C)OC(=O)[C@H]([C@@H](C)CC)NC1=O
32

Which MIC is reported for this molecule? CCC[C@@H]1NC(=O)[C@H](CCCNC(=N)N)NC(=O)[C@H](NC(=O)[C@H](CO)NC(=O)[C@@H](NC(=O)[C@H](NC(=O)[C@@H](CCC(N)=O)NC(=O)[C@H](CCCNC(=N)N)NC(=O)[C@@H](NC(=O)[C@@H](Cc2ccccc2)NC)[C@@H](C)CC)[C@@H](C)CC)[C@@H](C)CC)[C@H](C)OC(=O)[C@H]([C@@H](C)CC)NC1=O
2

Which MIC is reported for this molecule? CCCCCCCCCC(=O)N[C@@H](Cc1c[nH]c2ccccc12)C(=O)N[C@H](CC(N)=O)C(=O)N[C@@H](CC(=O)O)C(=O)N[C@@H]1C(=O)NCC(=O)N[C@@H](CCCN)C(=O)N[C@@H](CC(=O)O)C(=O)N[C@H](C)C(=O)N[C@@H](CC(=O)O)C(=O)NCC(=O)N[C@H](CO)C(=O)N[C@@H]([C@H](C)CC(=O)O)C(=O)N[C@@H](CC(=O)c2ccccc2N)C(=O)O[C@@H]1C
1

Which MIC is reported for this molecule? CCC[C@@H]1NC(=O)[C@H](C)NC(=O)[C@H](NC(=O)[C@H](CO)NC(=O)[C@@H](NC(=O)[C@H](NC(=O)[C@@H](CCCNC(=N)N)NC(=O)[C@H](CO)NC(=O)[C@@H](NC(=O)[C@@H](Cc2ccccc2)NC)[C@@H](C)CC)[C@@H](C)CC)[C@@H](C)CC)[C@H](C)OC(=O)[C@H]([C@@H](C)CC)NC1=O
0.5

Cited source for all entries: ChEMBL document CHEMBL5634143
